biological target: Tyk2 (Homo sapiens (Human), UniProt P29597); test: pSTAT4 Cell Assay (MSD, NK92 cells); assay type: cell-based; conditions: MSD
Sequence (P29597 whole entry, the tested form may be a part): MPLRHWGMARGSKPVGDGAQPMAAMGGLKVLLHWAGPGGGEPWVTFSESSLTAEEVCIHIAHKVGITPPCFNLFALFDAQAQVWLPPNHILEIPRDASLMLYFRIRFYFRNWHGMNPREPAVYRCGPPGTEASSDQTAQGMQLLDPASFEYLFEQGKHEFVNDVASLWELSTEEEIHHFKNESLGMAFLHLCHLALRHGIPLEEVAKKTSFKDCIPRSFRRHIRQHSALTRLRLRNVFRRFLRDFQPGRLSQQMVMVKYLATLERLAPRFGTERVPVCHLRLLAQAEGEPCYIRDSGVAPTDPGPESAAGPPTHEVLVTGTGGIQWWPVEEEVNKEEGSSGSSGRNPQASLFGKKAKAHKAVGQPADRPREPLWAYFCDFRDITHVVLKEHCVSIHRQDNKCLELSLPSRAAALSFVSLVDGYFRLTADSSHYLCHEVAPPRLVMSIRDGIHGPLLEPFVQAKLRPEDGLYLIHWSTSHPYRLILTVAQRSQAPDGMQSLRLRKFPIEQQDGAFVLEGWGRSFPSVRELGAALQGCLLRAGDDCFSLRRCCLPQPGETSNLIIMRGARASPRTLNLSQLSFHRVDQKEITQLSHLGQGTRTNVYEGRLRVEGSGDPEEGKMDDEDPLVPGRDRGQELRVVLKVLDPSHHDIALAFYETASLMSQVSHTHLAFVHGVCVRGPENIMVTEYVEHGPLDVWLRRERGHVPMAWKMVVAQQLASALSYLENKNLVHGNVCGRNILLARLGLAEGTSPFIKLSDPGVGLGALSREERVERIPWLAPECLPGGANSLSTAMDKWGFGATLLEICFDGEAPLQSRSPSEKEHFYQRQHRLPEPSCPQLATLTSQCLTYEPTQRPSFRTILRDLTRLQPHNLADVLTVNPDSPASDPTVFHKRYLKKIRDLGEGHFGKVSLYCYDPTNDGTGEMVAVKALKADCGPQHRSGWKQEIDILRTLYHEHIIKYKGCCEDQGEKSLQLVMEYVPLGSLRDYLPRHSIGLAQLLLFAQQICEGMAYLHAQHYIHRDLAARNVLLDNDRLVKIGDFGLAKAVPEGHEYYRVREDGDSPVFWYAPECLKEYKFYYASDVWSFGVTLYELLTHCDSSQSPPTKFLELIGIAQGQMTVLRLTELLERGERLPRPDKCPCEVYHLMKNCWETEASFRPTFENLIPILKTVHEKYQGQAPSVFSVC
pIC50: −log10 of the molar value.
outcome-measure: pIC50

1. COc1cncc(-c2cc(Nc3cc(NC(C)=O)ncc3OC)nc(C(C)(F)F)n2)c1: 6.00 to 7.00
2. CCOc1cnc(NC(C)=O)cc1Nc1cc(C)cc(C23COC(C2)C3)n1: 6.00 to 7.00
3. CC(=O)Nc1cc(Nc2cc(C)nc(C(C)(F)F)n2)c(OCc2nc(C)co2)cn1: 7.00 to 8.00
4. CC(=O)Nc1cc(Nc2cc(C)nc(C(C)(F)F)n2)c(-c2cocn2)cn1: ≥ 8.00
5. CC(=O)Nc1cc(Nc2cc(C)nc(C(C)(F)F)n2)c(OC[C@]23C[C@](C)(CO2)C3)cn1: ≥ 8.00
6. COc1cnc(NC(C)=O)cc1Nc1cc(-c2cnn(CC3CC3)c2)nc(C(C)(F)F)n1: 7.00 to 8.00
7. CC(=O)Nc1cc(Nc2cc(C)nc(C(C)(F)F)n2)c(-c2ccc3c(n2)CCC3=O)cn1: ≥ 8.00
8. CC(=O)Nc1cc(Nc2cc(C)nc(C(C)(F)F)n2)c(-c2ccc3nccn3n2)cn1: 7.00 to 8.00
9. CC(=O)Nc1cc(Nc2cc(C)nc(C(C)(F)F)n2)c(-c2cccc(C3CCCO3)n2)cn1 (centres unmarked): ≥ 8.00
10. COc1cc(Nc2cc(NC(C)=O)ncc2-c2ccn(C)n2)nc(C(C)(F)F)n1: ≥ 8.00
11. CC(=O)Nc1cc(Nc2cc(C)nc(C(C)(F)F)n2)c(-c2cncc(CN(C)C)n2)cn1: 6.00 to 7.00
12. CC(=O)Nc1cc(Nc2cc(C)nc(C(C)(F)F)n2)c(-c2ccc([C@@H]3COCCN3C)cn2)cn1 (single isomer, unassigned): ≥ 8.00
13. CC(=O)Nc1cc(Nc2cccc(C(C)(F)F)n2)c(-c2ccn(C)c(=O)n2)cn1: ≥ 8.00
14. COCCOc1cc(Nc2cc(NC(C)=O)ncc2OC)nc(C(C)(F)F)n1: 6.00 to 7.00
15. CC(=O)Nc1cc(Nc2cncc(C(C)(C)F)c2)c(-c2ccc(C(C)(C)O)cn2)cn1: ≥ 8.00
16. CC(=O)Nc1cc(Nc2cc(C)nc(C(C)(F)F)n2)c(-c2ccc(C)cn2)cn1: ≥ 8.00
17. CC(=O)Nc1cc(Nc2cc(C)nc(C(C)(F)F)n2)c(-c2ccncn2)cn1: ≥ 8.00
18. Cc1cc(Nc2cc(NC(N)=O)ncc2-c2ccn(C)n2)nc(C(C)(F)F)n1: ≥ 8.00
19. CCOc1cnc(NC(C)=O)cc1Nc1cc(-c2cnn(C(C)C)c2)nc(C(C)(F)F)n1: ≥ 8.00
20. CC(=O)Nc1cc(Nc2ccnc(C(C)(F)F)n2)c(-c2cnn(C(C)C)n2)cn1: ≥ 8.00
21. CC(=O)Nc1cc(Nc2ccnc(C(C)(F)F)n2)c(-c2cncc(OC(F)F)n2)cn1: ≤ 6.00
22. CCc1cc(Nc2cc(NC(C)=O)ncc2-c2cc3n(n2)CCN(C)C3)nc(C(C)(F)F)n1: ≥ 8.00
23. CC(=O)Nc1cc(Nc2cc(C)nc(C(C)(F)F)n2)c(OCC2CC2(F)F)cn1 (centres unmarked): 7.00 to 8.00

---

Property: pIC50; scope: individual compounds
target: Tyk2 (Homo sapiens (Human), UniProt P29597); assay: pSTAT4 Cell Assay (MSD, NK92 cells); assay type: cell-based
pIC50: −log10 of the molar value.
outcome-measure: pIC50

1. CCc1cc(Nc2cc(NC(C)=O)ncc2-c2cnc(N(C)C)cn2)nc(C(C)(F)F)n1 [Example 856]: 7.00 to 8.00
2. CC(=O)Nc1cc(Nc2cc(-c3cnn(C(C)C)c3)nc(C(C)(F)F)n2)c(F)cn1 [Example 819]: ≤ 6.00
3. CCc1cc(Nc2cc(NC(C)=O)ncc2-c2cnc(CN3C[C@H]4C[C@@H](C3)O4)cn2)nc(C(C)(F)F)n1 [Example 900]: ≥ 8.00
4. CC(=O)Nc1cc(Nc2ccnc(C(C)(F)F)n2)c(-c2cnc(C(C)(C)O)cn2)cn1 [Example 853]: 7.00 to 8.00
5. CCc1cc(Nc2cc(NC(C)=O)ncc2-c2cnc(COC)cn2)nc(C(C)(F)F)n1 [Example 836]: ≥ 8.00
6. CC(=O)Nc1cc(Nc2cc(C)nc(C(C)(F)F)n2)c(-c2cn3c(n2)COCC3)cn1 [Example 768]: ≥ 8.00
7. CC(=O)Nc1cc(Nc2ccnc(C(C)(F)F)n2)c(-c2ncc(CN(C)C)s2)cn1 [Example 782]: ≥ 8.00
8. CC(=O)Nc1cc(Nc2cc(C)nc(C(C)(F)F)n2)c(-c2csc(CN3CCN(C)CC3)n2)cn1 [Example 787]: ≥ 8.00
9. COC1CCN(c2ccc(-c3cnc(NC(C)=O)cc3Nc3ccnc(C(C)(F)F)n3)nn2)C1 (racemic) [Example 873]: ≥ 8.00

---

molecular target: Tyk2 (Homo sapiens (Human), UniProt P29597); experiment: pSTAT4 Cell Assay (MSD, NK92 cells); assay type: cell-based; details: MSD
outcome-measure: IC50

1) CC(=O)Nc1cc(Nc2cc(C)nc(C(C)(F)F)n2)c(-c2nncs2)cn1: ≤ 0.01 µM
2) CC(=O)Nc1cc(Nc2ccnc(C(C)(F)F)n2)c(-c2ncccn2)cn1: 0.01 to 0.1 µM
3) CC(=O)Nc1cc(Nc2cc(C)nc(C(C)(F)F)n2)c(C2=NC3C(=O)OCC3C=N2)cn1 (stereo not drawn): ≤ 0.01 µM
4) CCn1cc(-c2cc(Nc3cc(NC(C)=O)ncc3OC)nc(C(C)(F)F)n2)cn1: 0.01 to 0.1 µM
5) CCOc1cc(Nc2cc(NC(C)=O)ncc2OCCOC)nc(C(C)(F)F)n1: ≤ 0.01 µM
6) CCc1cc(Nc2cc(NC(C)=O)ncc2OCCCF)nc(C(C)(F)F)n1: 0.01 to 0.1 µM
7) CCc1cc(Nc2cc(NC(C)=O)ncc2OCCN2CCOCC2)nc(C(C)(F)F)n1: ≤ 0.01 µM
8) CC(=O)Nc1cc(Nc2cc(C)nc(C(C)(F)F)n2)c(-c2ccn(C)n2)cn1: ≤ 0.01 µM
9) CC(=O)Nc1cc(Nc2cc(C)nc(C(C)(F)F)n2)c(OCC2CN(C)C2)cn1: 0.1 to 1 µM
10) CC(=O)Nc1cc(Nc2cc(C)nc(C34COC(C3)C4)n2)c(-c2ccn(C)n2)cn1: 0.01 to 0.1 µM
11) CC(=O)Nc1cc(Nc2cc(C)nc(C(C)(F)F)n2)c(OCc2ccon2)cn1: 0.01 to 0.1 µM
12) COCCOc1cnc(NC(C)=O)cc1Nc1cc(C)nc(C(C)(C)F)n1: ≤ 0.01 µM

---

Property: pIC50; scope: individual compounds
target: JH2 domain of human Tyk2 (Homo sapiens (Human)); experiment: JH2 Biochemical Assay (TR-FRET probe displacement); assay type: binding; conditions: JH2 domain of human Tyk2, TR-FRET probe displacement
Sequence (P29597 575-876): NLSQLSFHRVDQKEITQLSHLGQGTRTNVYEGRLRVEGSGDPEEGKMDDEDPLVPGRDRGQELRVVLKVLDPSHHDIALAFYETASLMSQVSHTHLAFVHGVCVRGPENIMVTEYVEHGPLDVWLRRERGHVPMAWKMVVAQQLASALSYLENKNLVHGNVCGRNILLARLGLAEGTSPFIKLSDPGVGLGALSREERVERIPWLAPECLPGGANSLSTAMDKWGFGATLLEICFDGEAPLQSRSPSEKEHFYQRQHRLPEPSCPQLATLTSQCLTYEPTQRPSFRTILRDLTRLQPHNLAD
pIC50: −log10 of the molar value.
outcome-measure: pIC50

1. COc1cnc(NC(C)=O)cc1Nc1cc(-c2cnn(C(F)F)c2)nc(C(C)(F)F)n1 [Example 375]: 7.00 to 8.00
2. CC(=O)Nc1cc(Nc2cc(C)nc(C(C)(F)F)n2)c(-c2nnc(C(C)(C)C)s2)cn1 [Example 611]: ≥ 8.00
3. CC(=O)Nc1cc(Nc2cc(C)nc(C(C)(F)F)n2)c(-c2ccc(F)cn2)cn1 [Example 594]: ≥ 8.00
4. COc1cnc(NC(C)=O)cc1Nc1cc(-c2cnn(C(C)C)c2F)nc(C(C)(F)F)n1 [Example 383]: 7.00 to 8.00

---

biological target: Tyk2 (Homo sapiens (Human), UniProt P29597); test: pSTAT4 Cell Assay (MSD, NK92 cells); format: cell-based
Property: IC50; scope: individual molecules
outcome-measure: IC50

1. CC(=O)Nc1cc(Nc2ccnc(C(C)(F)F)n2)c(-c2ccc(OC(F)F)nn2)cn1 [Example 858]: 0.01 to 0.1 µM
2. CCc1cc(Nc2cc(NC(C)=O)ncc2-c2cnc(CN(C)C)cn2)nc(C(C)(F)F)n1 [Example 895]: ≤ 0.01 µM
3. CC(=O)Nc1cc(Nc2ccnc(C(C)(F)F)n2)c(-c2ccc(N3CC4(CCOC4)C3)nn2)cn1 [Example 877]: ≤ 0.01 µM
4. CC(=O)Nc1cc(Nc2ccnc(C(C)(F)F)n2)c(-c2cnc(N3CCCC3)cn2)cn1 [Example 843]: 0.01 to 0.1 µM
5. COCCc1nnc(-c2cnc(NC(C)=O)cc2Nc2cc(C)nc(C(C)(F)F)n2)s1 [Example 754]: ≤ 0.01 µM
6. CC(=O)Nc1cc(Nc2cc(C)nc(C(C)(F)F)n2)c(-c2cnc(C#N)cn2)cn1 [Example 838]: 0.01 to 0.1 µM
7. CC(=O)Nc1cc(Nc2ccnc(C(C)(F)F)n2)c(-c2ccc(N3C[C@@H]4C[C@H]3CO4)nn2)cn1 [Example 876]: ≤ 0.01 µM
8. CCc1cc(Nc2cc(NC(C)=O)ncc2-c2cnc(C#N)cn2)nc(C(C)(F)F)n1 [Example 864]: 0.01 to 0.1 µM
9. CC(=O)Nc1cc(Nc2ccnc(C(C)(F)F)n2)c(-c2cnc(OC(F)F)cn2)cn1 [Example 854]: 0.01 to 0.1 µM
10. CC(=O)Nc1cc(Nc2ccnc(C(C)(F)F)n2)c(-c2cc(OC(F)F)ncn2)cn1 [Example 767]: 0.01 to 0.1 µM
11. CCc1cc(Nc2cc(NC(C)=O)ncc2F)nc(C(C)(F)F)n1 [Example 816]: 0.1 to 1 µM
12. CC(=O)Nc1cc(Nc2ccnc(C(C)(F)F)n2)c(-c2nc3c(s2)CCN(C)C3)cn1 [Example 797]: ≤ 0.01 µM
13. CC(=O)Nc1cc(Nc2cc(C)nc(C(C)(F)F)n2)c(-c2ccn(C(F)F)n2)cn1 [Example 811]: 0.01 to 0.1 µM
14. COCc1nsc(-c2cnc(NC(C)=O)cc2Nc2cc(C)nc(C(C)(F)F)n2)n1 [Example 762]: ≤ 0.01 µM
15. CC(=O)Nc1cc(Nc2cc(C)nc(C(C)(F)F)n2)c(-c2cc(CN3CCCC3)n(C)n2)cn1 [Example 803]: ≤ 0.01 µM
16. CC(=O)Nc1cc(Nc2ccnc(C(C)(F)F)n2)c(-c2cnc(N(C)C)cn2)cn1 [Example 842]: 0.01 to 0.1 µM
17. COCCN(C)c1nc(-c2cnc(NC(C)=O)cc2Nc2cc(C)nc(C(C)(F)F)n2)cs1 [Example 772]: ≤ 0.01 µM
18. CCc1cc(Nc2cc(NC(C)=O)ncc2-c2ccc(N3CCOCC3)nn2)nc(C(C)(F)F)n1 [Example 863]: ≤ 0.01 µM
19. COc1ccc(-c2cnc(NC(C)=O)cc2Nc2cc(OC3CC3)nc(C(C)(F)F)n2)nn1 [Example 833]: ≤ 0.01 µM
20. CC(=O)Nc1cc(Nc2cc(C)nc(C(C)(F)F)n2)c(-c2csc(N3CCN(C)CC3)n2)cn1 [Example 771]: ≤ 0.01 µM
21. CCc1cc(Nc2cc(NC(C)=O)ncc2-c2cnc(C(C)(C)O)cn2)nc(C(C)(F)F)n1 [Example 855]: ≤ 0.01 µM
22. CC(=O)Nc1cc(Nc2cc(C)nc(C(C)(F)F)n2)c(-c2cnc(CN(C)C)cn2)cn1 [Example 807]: ≤ 0.01 µM
23. CCc1cc(Nc2cc(NC(C)=O)ncc2-c2ncc(CN3CCCC3)cc2F)nc(C(C)(F)F)n1 [Example 904]: ≤ 0.01 µM

FYI, the data here is from patent US20260028365A1.
